Biological target: T1, monomeric recombinant human Notch3 extracellular domain (containing EGF like domains 1-11) fusion protein (human, UniProt Q9UM47 40-467)
T1 construct: domain: EGF like domains 1-11; also called monomeric rhNotch3
T1 sequence (looked up): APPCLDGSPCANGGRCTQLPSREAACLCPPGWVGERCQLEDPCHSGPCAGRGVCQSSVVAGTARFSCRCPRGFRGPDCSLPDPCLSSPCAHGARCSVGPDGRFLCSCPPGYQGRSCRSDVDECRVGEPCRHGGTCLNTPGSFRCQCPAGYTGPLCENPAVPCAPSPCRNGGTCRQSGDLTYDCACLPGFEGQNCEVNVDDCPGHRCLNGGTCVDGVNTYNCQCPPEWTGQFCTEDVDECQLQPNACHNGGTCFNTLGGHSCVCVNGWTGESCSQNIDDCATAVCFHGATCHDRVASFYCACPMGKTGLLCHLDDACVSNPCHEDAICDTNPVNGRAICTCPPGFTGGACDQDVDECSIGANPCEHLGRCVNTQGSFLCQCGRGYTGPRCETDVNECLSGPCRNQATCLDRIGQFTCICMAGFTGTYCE
Assay: SPR BIAcore T100, antibody captured by anti-human IgG Fc, monomeric rhNotch3 analyte, 37 C
measure name: kon (M⁻¹ s⁻¹)
Number only, in M⁻¹ s⁻¹; omit the unit.

Worked examples, 2 binders total:
Hu4F11-73 (antibody, human IgG1, kappa, V domains shown, Humanized, human IgG1 kappa; Hv3-23 A28T S31N T62S heavy + Kv2D-29 N28Y kappa) VH: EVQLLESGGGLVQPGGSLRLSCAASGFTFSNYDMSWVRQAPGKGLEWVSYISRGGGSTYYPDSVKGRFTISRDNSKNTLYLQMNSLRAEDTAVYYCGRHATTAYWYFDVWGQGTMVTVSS VL: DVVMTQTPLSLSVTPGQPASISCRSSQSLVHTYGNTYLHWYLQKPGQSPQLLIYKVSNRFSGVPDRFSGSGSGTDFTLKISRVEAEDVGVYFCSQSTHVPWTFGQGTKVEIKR	210000
Hu4F11-74 (antibody, human IgG1, kappa, V domains shown, Humanized, human IgG1 kappa; Hv3-23 A28T S31H T62S heavy + Kv2D-29 N28Y kappa) VH: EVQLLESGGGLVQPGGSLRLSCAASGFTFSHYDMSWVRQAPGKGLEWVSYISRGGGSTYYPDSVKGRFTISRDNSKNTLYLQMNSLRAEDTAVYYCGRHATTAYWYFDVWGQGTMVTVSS VL: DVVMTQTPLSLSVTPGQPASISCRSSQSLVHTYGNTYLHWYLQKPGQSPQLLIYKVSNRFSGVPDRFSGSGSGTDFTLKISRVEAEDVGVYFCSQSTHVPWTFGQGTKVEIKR	560000

Turning now to a further record.
**Query** Look at this binder and give its reported kon. Hu4F11-78 (antibody, human IgG1, kappa, V domains shown, Humanized, human IgG1 kappa; Hv3-23 A28T S31H T62S heavy + Kv2D-29 N28Q kappa) VH: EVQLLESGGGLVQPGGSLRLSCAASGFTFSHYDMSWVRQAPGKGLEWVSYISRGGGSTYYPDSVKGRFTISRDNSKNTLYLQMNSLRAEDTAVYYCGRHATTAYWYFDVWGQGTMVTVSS VL: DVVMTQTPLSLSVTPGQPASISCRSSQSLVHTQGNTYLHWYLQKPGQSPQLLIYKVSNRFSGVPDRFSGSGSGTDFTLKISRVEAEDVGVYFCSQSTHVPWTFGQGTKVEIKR
**Result** 1.5e+06
